- Tested on: PPARg:RXRa DBDmut IVT, anti-RXR (DBD mutation: RXRa K156A/R161A, NR concentration 270 nM, RXRa partner concentration 90 nM)
- ASSAY EXPLANATION: PBM binding z-score (relative to random genomic background probes); higher = stronger binding; sequences stand for … in GC…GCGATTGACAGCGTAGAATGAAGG
Label false (0) if PBM binding z-score falls below 5; label true (1) in every other case.

SEQ STRING | CLASS LABEL
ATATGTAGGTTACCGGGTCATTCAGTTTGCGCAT | true (1)
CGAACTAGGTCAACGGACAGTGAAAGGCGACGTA | true (1)
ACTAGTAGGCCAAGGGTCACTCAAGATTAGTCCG | true (1)
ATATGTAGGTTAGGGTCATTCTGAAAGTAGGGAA | true (1)
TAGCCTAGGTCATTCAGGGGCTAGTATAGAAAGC | false (0)
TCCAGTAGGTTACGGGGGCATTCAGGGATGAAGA | true (1)
CCGAGTAGGTTACGAGTGGGCATTCAGTGCGAAT | false (0)
TAGCCTAGGTCACGGGCCAGTATACCACGCGAAC | false (0)
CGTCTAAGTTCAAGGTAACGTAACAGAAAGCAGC | false (0)
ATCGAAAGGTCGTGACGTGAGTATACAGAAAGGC | false (0)
TCGAGTAGGTTACGGGGGTATTCAGGGATGAAGA | false (0)
TCTGCTAGGTCAACGATGGTCAGCGAATCTGCTA | false (0)
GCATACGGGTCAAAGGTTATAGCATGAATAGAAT | false (0)
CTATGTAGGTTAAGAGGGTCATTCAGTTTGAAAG | true (1)
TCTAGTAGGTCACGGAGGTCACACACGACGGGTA | true (1)
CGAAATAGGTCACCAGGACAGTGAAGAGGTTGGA | true (1)
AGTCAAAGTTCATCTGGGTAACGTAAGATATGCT | false (0)
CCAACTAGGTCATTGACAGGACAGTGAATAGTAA | true (1)
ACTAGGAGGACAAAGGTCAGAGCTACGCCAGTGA | false (0)
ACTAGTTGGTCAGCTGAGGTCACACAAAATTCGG | false (0)
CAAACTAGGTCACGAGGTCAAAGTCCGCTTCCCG | true (1)
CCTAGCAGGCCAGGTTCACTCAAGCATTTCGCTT | false (0)
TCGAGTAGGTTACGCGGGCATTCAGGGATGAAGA | false (0)
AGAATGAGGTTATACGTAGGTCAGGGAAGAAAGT | false (0)
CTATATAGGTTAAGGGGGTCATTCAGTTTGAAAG | true (1)
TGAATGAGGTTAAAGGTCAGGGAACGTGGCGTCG | false (0)
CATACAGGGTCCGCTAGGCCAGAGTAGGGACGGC | false (0)
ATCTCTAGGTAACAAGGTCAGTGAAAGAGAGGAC | false (0)
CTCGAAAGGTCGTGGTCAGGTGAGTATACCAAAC | false (0)
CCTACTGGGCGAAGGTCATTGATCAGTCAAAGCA | false (0)
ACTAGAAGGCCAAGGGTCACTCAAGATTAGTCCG | false (0)
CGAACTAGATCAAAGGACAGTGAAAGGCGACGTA | false (0)
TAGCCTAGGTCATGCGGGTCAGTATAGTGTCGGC | false (0)
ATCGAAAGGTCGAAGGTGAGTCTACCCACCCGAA | false (0)
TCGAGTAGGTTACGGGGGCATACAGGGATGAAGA | true (1)
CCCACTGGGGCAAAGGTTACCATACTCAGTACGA | true (1)
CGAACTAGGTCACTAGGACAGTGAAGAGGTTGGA | true (1)
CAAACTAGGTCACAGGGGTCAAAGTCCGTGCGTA | true (1)
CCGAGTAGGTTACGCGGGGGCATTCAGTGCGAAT | false (0)
TCGAGTAGGTTACGGAGGCATTCAGGGATGAAGA | false (0)
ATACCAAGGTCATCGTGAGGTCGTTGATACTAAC | false (0)
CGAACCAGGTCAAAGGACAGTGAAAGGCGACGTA | false (0)
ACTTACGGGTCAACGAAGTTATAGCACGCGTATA | false (0)
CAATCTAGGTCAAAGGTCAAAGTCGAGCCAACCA | true (1)
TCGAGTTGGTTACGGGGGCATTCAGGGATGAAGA | false (0)
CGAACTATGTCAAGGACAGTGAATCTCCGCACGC | false (0)
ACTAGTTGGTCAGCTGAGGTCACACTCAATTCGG | false (0)
